Cited source for all entries: the supplement of paper PMC10567573

B1: SPOPL (parent)
chain: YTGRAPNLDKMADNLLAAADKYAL

Variants of: B1
Assay: protein stability index of a GFP-peptide fusion (GPS, HEK-293T) (PSI 1-6); higher = more stable;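 also: lentivirally expressed fusions sorted by FACS into six bins by GFP to DsRed ratio, PSI derived from sequencing read proportions per bin multiplied by bin number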
Settings: c terminus: a fixed tail appended
Short version: protein stability index at least 2 is yes (1), less is no (0).

(Q) Determine whether this variant has protein stability index no lower than 2: "YTGRWPNLDKMADNLLAAADKYAL"
(A) yes (1)

(Q) Request: "YTGRAPNLDKMADALLAAADKYAL"
(A) no (0)

(Q) Request: "YTGRAPNSDKMADNLLAAADKYAL"
(A) no (0)

(Q) Request: "YTGRAPNLDKMAFNLLAAADKYAL"
(A) no (0)

(Q) Request: "YTGRAPNLDKNADNLLAAADKYAL"
(A) yes (1)
